Target: NLRP3 (Homo sapiens)
Construct: Seed THP-1 cells (25,000 cells/well) containing 1.0 μg/ml LPS in 40 μl of RPMI medium
Sequence (Q96P20 whole entry): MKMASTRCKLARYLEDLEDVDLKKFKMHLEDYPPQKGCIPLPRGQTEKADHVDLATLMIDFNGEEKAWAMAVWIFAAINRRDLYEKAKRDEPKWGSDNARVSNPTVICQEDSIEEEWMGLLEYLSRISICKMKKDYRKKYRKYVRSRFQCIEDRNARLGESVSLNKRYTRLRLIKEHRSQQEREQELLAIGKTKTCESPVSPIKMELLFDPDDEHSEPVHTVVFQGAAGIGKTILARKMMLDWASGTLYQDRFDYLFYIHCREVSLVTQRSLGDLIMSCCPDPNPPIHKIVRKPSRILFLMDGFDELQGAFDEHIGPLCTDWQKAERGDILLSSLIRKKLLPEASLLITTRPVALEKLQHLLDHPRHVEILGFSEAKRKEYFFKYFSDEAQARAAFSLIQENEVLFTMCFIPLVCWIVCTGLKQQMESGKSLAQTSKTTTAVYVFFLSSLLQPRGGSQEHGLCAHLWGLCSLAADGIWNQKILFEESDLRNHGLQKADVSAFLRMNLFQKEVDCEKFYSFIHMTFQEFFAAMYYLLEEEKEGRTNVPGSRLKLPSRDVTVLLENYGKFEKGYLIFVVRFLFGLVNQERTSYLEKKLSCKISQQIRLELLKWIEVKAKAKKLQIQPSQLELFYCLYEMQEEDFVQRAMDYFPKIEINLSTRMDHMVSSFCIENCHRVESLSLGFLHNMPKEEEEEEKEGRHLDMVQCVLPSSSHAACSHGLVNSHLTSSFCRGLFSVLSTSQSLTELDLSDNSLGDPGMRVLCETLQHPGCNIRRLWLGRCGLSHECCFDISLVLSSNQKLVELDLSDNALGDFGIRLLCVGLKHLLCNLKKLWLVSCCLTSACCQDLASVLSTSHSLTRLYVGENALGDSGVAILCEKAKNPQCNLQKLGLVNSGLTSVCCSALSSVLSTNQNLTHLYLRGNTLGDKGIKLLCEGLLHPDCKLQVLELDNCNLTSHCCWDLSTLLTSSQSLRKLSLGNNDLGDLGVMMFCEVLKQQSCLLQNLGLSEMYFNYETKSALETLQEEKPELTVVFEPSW
Experiment: THP-1 cells pyroptosis assay (LPS-primed, nigericin-triggered, resazurin read-out)
Settings: 1 μg/ml LPS, compound 3 hrs, nigericin 5 μM 1 hr, resazurin viability
Where a name gives a salt, the structure may show the parent alone.
List of IC50 values.

Examples with answers:
| MOLECULE | IC50 |
| --- | --- |
| COc1cc(-c2cc(F)cc(C(C)C)c2CC(=O)NS(=O)(=O)c2ccc(=O)n(C(C)C)c2)ccn1 [Example 2, potassium salt] | 1 to 5 µM |
| COc1cc(-c2cc(F)cc(C(C)C)c2CC(=O)NS(=O)(=O)c2cn(C)c(=O)n(C)c2=O)ccn1 | ≤ 1 µM |

# next molecule below
Task: Recorded IC50 for COc1cc(-c2cc(F)cc(C(C)C)c2CC(=O)NS(=O)(=O)c2ccc(=O)n(C)c2)ccn1 [Example 1, potassium salt] with NLRP3 (Homo sapiens), please?
Result: 5 to 10 µM

Taken from patent US20200399242A1.
